Tested system: T1, human GREM1 (hGREM1-His; SEQ ID NO: 595) (human, UniProt O60565 25-184)
T1 construct: also called biotin-hGREM1-His; recombinant human GREM1 protein
T1 sequence: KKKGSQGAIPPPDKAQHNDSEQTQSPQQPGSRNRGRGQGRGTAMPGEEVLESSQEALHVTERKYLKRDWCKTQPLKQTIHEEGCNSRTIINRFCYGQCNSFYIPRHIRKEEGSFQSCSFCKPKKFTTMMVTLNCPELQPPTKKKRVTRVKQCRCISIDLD
Protocol summary: SPR, Biacore T200, 37 C, mAb captured, hGREM1-His injected;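 note: HBS-EP running buffer containing heparin, association and dissociation phases tracked, KD computed as koff over kon and half-life derived from koff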
Property name: t1/2 (min)
# output: bare number, implied unit min

// returns reported t1/2 for input H4H6233P (antibody, human IgG4, V domains shown, H4H prefix = human IgG4 Fc) VH: QVQLVESGGGVVQPGRSLRLSCAASGFTFSSYGMHWVRQAPGKGLEWVAVIWYDGSNYYYAASVKGRFTISRDNSENTLYLQMNRLRAEDTAVYYCAREGTGSTEDYFDYWGQGTLVTVSS VL: EIVLTQSPATLSLSPGERATLSCRASQSVSSFLAWYQQKPGQAPRLLIYDASNRATGIPVRFSGSGSGTDFTLTISSLEPEDFAVYYCQQRSNWPPYTFGQGTKLEIK
23

// returns reported t1/2 for input H4H6248P (antibody, human IgG4, V domains shown, H4H prefix = human IgG4 Fc) VH: QVQLVESGGGVVQPGRSLRLSCAASGFTFSNYGMHWVRQVPGKGLEWVAVIWYDGSNKYYADSVKGRFTISRDNSKNTLYLQMNSVRAEDTAVYYCARDDYGDSPGFDYWGQGTLVTVSS VL: EIVMTQSPATLSVSPGERATLSCRASQSVSSSLAWYQQKPGQAPRLLIYDASTRATGIPARFSGSGSGTEFTLTISGLQSEDFAVYYCQQYNNWPPWTFGQGTKVEIK
24

// returns reported t1/2 for input H4H6260P (antibody, human IgG4, V domains shown, H4H prefix = human IgG4 Fc) VH: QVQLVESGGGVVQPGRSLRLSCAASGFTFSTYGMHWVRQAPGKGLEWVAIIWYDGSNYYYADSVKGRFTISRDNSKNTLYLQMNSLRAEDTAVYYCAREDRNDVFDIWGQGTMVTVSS VL: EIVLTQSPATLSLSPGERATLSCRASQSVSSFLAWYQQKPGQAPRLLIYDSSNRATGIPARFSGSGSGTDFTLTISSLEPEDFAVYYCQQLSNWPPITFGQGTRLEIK
41

// returns reported t1/2 for input H4H2780N (antibody, human IgG4, V domains shown, H4H prefix = human IgG4 Fc) VH: EVQLVESGGGLVKPGGSLRLSCAASGFTFSTYSMNWVRQAPGKGLEWVSSISSGSSYIYYTDSVKGRFTISRDNAKNSLYLQMNSLRAEDTAVYYCARFGSYYYFGFDVWGQGTTVTVSS VL: DIQMTQSPSSLSASVGDRVTITCRASQGISNYLAWYQQKPGKVPKLLIFSASTLQSGVPSRFSGSGSGPDFTLTVSSLQPEDVATYYCQKYNSAPFAFGPGTKVDIK
7
